targetEntity: BRAF-MEK-ERK cascade (Homo sapiens)
Construct: human full length MEK1 kinase (Cat No. 14-706); 14-706 (MEK1); 14-536 (ERK2)
Sequence (Q02750 whole entry): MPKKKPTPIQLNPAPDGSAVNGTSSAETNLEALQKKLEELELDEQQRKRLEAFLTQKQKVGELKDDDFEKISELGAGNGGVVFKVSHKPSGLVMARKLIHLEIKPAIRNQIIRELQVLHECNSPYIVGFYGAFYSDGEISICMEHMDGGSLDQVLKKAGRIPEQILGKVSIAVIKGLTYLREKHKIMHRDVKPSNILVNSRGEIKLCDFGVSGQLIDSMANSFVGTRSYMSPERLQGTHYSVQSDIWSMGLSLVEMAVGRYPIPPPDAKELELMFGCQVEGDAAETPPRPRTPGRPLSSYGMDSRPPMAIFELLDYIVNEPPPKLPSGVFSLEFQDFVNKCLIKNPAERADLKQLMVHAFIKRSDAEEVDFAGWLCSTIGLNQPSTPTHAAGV
protocolDescription: BRAF-MEK-ERK enzymatic cascade assay (TR-FRET)
experimentalContext: mean±SEM, n=3; 10 point dose response, 45 minutes pre-incubation
Provide the reported IC50 of each item.

# input # IC50 lookup, item O=S(=O)(Nc1c(Nc2ccc(I)cc2F)c(F)c(F)c2ccoc12)C1(C[C@H](O)CO)CC1
# output 2 nM

# input # IC50 lookup, item O=S(=O)(Nc1c(Nc2ccc(I)cc2F)c(F)c(F)c2ccoc12)C1(C[C@@H](O)CO)CC1
# output 1.6 nM

# input # IC50 lookup, item O=S(=O)(Nc1c(Nc2ccc(I)cc2F)c(F)c(F)c2ccoc12)C1(CC(O)CO)CC1 (racemic)
# output 2.1 nM

###

protocolDescription: Pharmacokinetics in athymic nude rats
Type: in vivo
experimentalContext: athymic nude, plasma, iv; rat, i.v. (0.5 mg/kg)
experimentalEndpoint: Vd (L/kg)
Output spec: scalar in L/kg, unitless text.

# input # Vd lookup, item O=S(=O)(Nc1c(Nc2ccc(I)cc2F)c(F)c(F)c2ccoc12)C1(CC(O)CO)CC1 (racemic) [Example 1]
# output 0.17

# input # Vd lookup, item O=S(=O)(Nc1c(Nc2ccc(I)cc2F)c(F)c(F)c2ccoc12)C1(C[C@H](O)CO)CC1 [Example 1A]
# output 0.11

# input # Vd lookup, item O=S(=O)(Nc1c(Nc2ccc(I)cc2F)c(F)c(F)c2ccoc12)C1(C[C@@H](O)CO)CC1 [Example 1B]
# output 0.125

###

protocolDescription: Pharmacokinetics in athymic nude rats
Format: in vivo
experimentalContext: athymic nude, po; rat, p.o. (3 mg/kg), plasma
experimentalEndpoint: AUC (µg·h/mL)
Output spec: scalar in µg·h/mL, unitless text.

# input # AUC lookup, item O=S(=O)(Nc1c(Nc2ccc(I)cc2F)c(F)c(F)c2ccoc12)C1(C[C@H](O)CO)CC1 [Example 1A]
# output 994

# input # AUC lookup, item O=S(=O)(Nc1c(Nc2ccc(I)cc2F)c(F)c(F)c2ccoc12)C1(CC(O)CO)CC1 (racemic) [Example 1]
# output 365

# input # AUC lookup, item O=S(=O)(Nc1c(Nc2ccc(I)cc2F)c(F)c(F)c2ccoc12)C1(C[C@@H](O)CO)CC1 [Example 1B]
# output 752

###

Provide the reported clearance of each item.
protocolDescription: Pharmacokinetics in athymic nude rats
Type: in vivo
experimentalContext: athymic nude, iv; rat, i.v. (0.5 mg/kg), plasma
Output spec: scalar in mL/h/kg, unitless text.

# input # clearance lookup, item O=S(=O)(Nc1c(Nc2ccc(I)cc2F)c(F)c(F)c2ccoc12)C1(C[C@@H](O)CO)CC1 [Example 1B]
# output 5.2

# input # clearance lookup, item O=S(=O)(Nc1c(Nc2ccc(I)cc2F)c(F)c(F)c2ccoc12)C1(C[C@H](O)CO)CC1 [Example 1A]
# output 4

# input # clearance lookup, item O=S(=O)(Nc1c(Nc2ccc(I)cc2F)c(F)c(F)c2ccoc12)C1(CC(O)CO)CC1 (racemic) [Example 1]
# output 7.6

###

protocolDescription: Pharmacokinetics in athymic nude rats
Format: in vivo
experimentalContext: athymic nude, iv; rat, i.v. (0.5 mg/kg), plasma
experimentalEndpoint: half-life (h)
Output spec: scalar in h, unitless text.

# input # half-life lookup, item O=S(=O)(Nc1c(Nc2ccc(I)cc2F)c(F)c(F)c2ccoc12)C1(C[C@@H](O)CO)CC1
# output 17.1

# input # half-life lookup, item O=S(=O)(Nc1c(Nc2ccc(I)cc2F)c(F)c(F)c2ccoc12)C1(CC(O)CO)CC1 (racemic)
# output 15.6

# input # half-life lookup, item O=S(=O)(Nc1c(Nc2ccc(I)cc2F)c(F)c(F)c2ccoc12)C1(C[C@H](O)CO)CC1
# output 19.9
